Reported Papp B→A at 2 h, 10 μM by item:
experiment: in vitro; details: human, Caco-2
readoutLabel: Papp B→A at 2 h, 10 μM

[[record]]
molecule = "CCCCC(=O)c1c(C)[n+]([O-])c2cc(Cl)c(Cl)cc2[n+]1[O-] [SRI54]"
readoutlabel = "Papp B→A at 2 h, 10 μM"
reportedresult = "0.1 ×10⁻⁶ cm/s"

[[record]]
molecule = "Cc1c(C(=O)C2CC2)[n+]([O-])c2cc(Cl)c(Cl)cc2[n+]1[O-] [SRI58]"
readoutlabel = "Papp B→A at 2 h, 10 μM"
reportedresult = "0.57 ×10⁻⁶ cm/s"


###

assay: in vitro; details: African green monkey
readoutLabel: CC50 at 72 h

[[record]]
molecule = "CC(=O)c1c(C)[n+]([O-])c2ccc(Cl)cc2[n+]1[O-] [SRI4]"
reportedresult = "> 40 µg/mL"

[[record]]
molecule = "CC(C)=CCCC(=O)c1c(C)[n+]([O-])c2cc(Cl)c(Cl)cc2[n+]1[O-] [SRI57]"
reportedresult = "> 40 µg/mL"

[[record]]
molecule = "CCCCC(=O)c1c(C)[n+]([O-])c2cc(Cl)c(Cl)cc2[n+]1[O-] [SRI54]"
reportedresult = "15 µg/mL"

[[record]]
molecule = "CC(=O)c1c(C)[n+]([O-])c2ccccc2[n+]1[O-] [SRI1]"
reportedresult = "> 40 µg/mL"

[[record]]
molecule = "COc1ccc2c(c1)[n+]([O-])c(C(=O)c1cccnc1)c(C)[n+]2[O-] [SRI12]"
reportedresult = "1.7 µg/mL"

[[record]]
molecule = "Cc1c(C(=O)c2cccnc2)[n+]([O-])c2cc(Cl)c(Cl)cc2[n+]1[O-] [SRI55]"
reportedresult = "> 40 µg/mL"

[[record]]
molecule = "Cc1c(C(=O)C2CC2)[n+]([O-])c2cc(Cl)c(Cl)cc2[n+]1[O-] [SRI58]"
reportedresult = "> 40 µg/mL"

[[record]]
molecule = "CC(C)=CCC/C(C)=C/CCC(=O)c1c(C)[n+]([O-])c2cc(Cl)c(Cl)cc2[n+]1[O-] [SRI56]"
reportedresult = "4.5 µg/mL"

[[record]]
molecule = "CCCCC(=O)c1c(C)[n+]([O-])c2ccc([N+](=O)[O-])cc2[n+]1[O-] [SRI50]"
reportedresult = "3.4 µg/mL"

